# tested.on: JAK2 (recombinant purified GST-tagged catalytic domain) (Homo sapiens (Human), UniProt O60674)
# Sequence (O60674 849-1124): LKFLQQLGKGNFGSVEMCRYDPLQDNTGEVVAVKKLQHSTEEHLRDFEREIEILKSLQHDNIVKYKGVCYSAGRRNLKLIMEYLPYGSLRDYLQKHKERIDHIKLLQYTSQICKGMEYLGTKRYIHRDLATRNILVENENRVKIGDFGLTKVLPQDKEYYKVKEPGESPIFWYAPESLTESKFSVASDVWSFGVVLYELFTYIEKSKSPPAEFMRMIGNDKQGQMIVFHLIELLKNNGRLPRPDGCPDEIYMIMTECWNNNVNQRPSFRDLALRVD
# experiment.notes: biochemical
readout.type: IC50 (nM)

As a guide, the following entries are already answered.
>>> measured_number("N#C[C@@H]1C[C@H](OCC2CC2)CC[C@H]1n1cc(C(N)=O)c(Nc2ccnc(F)c2)n1 (single isomer, unassigned)")
76
>>> measured_number("COC1CN(C2CC[C@H](n3cc(C(N)=O)c(Nc4ccc(S(=O)(=O)C(F)(F)F)cc4)n3)[C@@H](C#N)C2)C1 (single isomer, unassigned)")
5
>>> measured_number("N#C[C@H]1C[C@@H](N)CCC1n1cc(C(N)=O)c(Nc2ccc(F)cc2)n1 (mixture of isomers)")
35
>>> measured_number("N#C[C@H]1C[C@@H](C(=O)NC2COC2)CC[C@@H]1n1cc(C(N)=O)c(Nc2ccc(Cl)cc2)n1 (single isomer, unassigned)")
243
>>> measured_number("N#C[C@@H]1C[C@@H](NC2COC2)CC[C@H]1n1cc(C(N)=O)c(Nc2ccc(C(F)(F)F)cc2)n1 (single isomer, unassigned)")
17
>>> measured_number("N#C[C@H]1C[C@@H](O)CC[C@@H]1n1cc(C(N)=O)c(Nc2ccc(OC(F)(F)F)cc2)n1 (single isomer, unassigned)")
5

[I] CC1CN([C@H]2CC[C@H](n3cc(C(N)=O)c(Nc4ccccc4)n3)[C@@H](C#N)C2)C1 (single isomer, unassigned)
[II] CC(=O)c1ccc(Nc2nn([C@H]3CC[C@H](N4CCC4)C[C@@H]3C#N)cc2C(N)=O)cc1 (single isomer, unassigned)
[III] CC1(C)CN([C@H]2CC[C@H](n3cc(C(N)=O)c(Nc4ccc([C@@H](O)C(F)(F)F)cc4)n3)[C@@H](C#N)C2)C1 (single isomer, unassigned)
[IV] N#C[C@H]1CCCC[C@@H]1n1cc(C(N)=O)c(Nc2ccnc(C(F)(F)F)c2)n1 (racemic)
[V] CC(C)(C)N[C@H]1CCC(n2cc(C(N)=O)c(Nc3ccccc3)n2)[C@@H](C#N)C1 (single isomer, unassigned)
Ask: Rank entries according to their IC50, from the largest number down. # the answer lists labels in the order requested
Reply: IV, I, V, II, III

[1] N#C[C@H]1C[C@@H](NCC(F)(F)F)CC[C@@H]1n1cc(C(N)=O)c(Nc2ccc(S(=O)(=O)C(F)(F)F)cc2)n1 (single isomer, unassigned)
[2] CS(=O)(=O)C1CN(C(=O)[C@H]2CC[C@H](n3cc(C(N)=O)c(Nc4ccc(Cl)cc4)n3)[C@@H](C#N)C2)C1 (single isomer, unassigned)
Ask: Short answer wanted: higher IC50, 1 or 2 ? Reply briefly: the label of your chosen item.
Reply: 2
(2: 49 nM, 1: 31 nM)

[P] N#C[C@H]1C[C@@H](NCC2CC2)CC[C@@H]1n1cc(C(N)=O)c(Nc2ccc(S(=O)(=O)C(F)(F)F)cc2)n1 (single isomer, unassigned)
[Q] COCC(C)N(C)[C@H]1CCC(n2cc(C(N)=O)c(Nc3ccc(Cl)cc3)n2)[C@@H](C#N)C1 (single isomer, unassigned) [Example 28-241]
Ask: From the recorded data, which exceeds the other in IC50: P or Q ? Kindly give the label for the entry you pick.
Reply: Q
(Q: 28 nM, P: 8 nM)

----------
# tested.on: JAK2 (recombinant purified GST-tagged catalytic domain) (Homo sapiens (Human))
pIC50: −log10 of the molar value.
readout.type: pIC50

>>> measured_number("N#C[C@H]1C[C@H](N2CCC2)CC[C@@H]1n1cc(C(N)=O)c(Nc2ccc(OC(F)F)nc2)n1 (single isomer, unassigned) [Example 28-2]")
7.17
>>> measured_number("COC(=O)[C@H]1CCC(n2cc(C(N)=O)c(Nc3ccc(F)cc3)n2)[C@@H](C#N)C1 (stereo partly drawn) [Example 7-2]")
7.00
>>> measured_number("CS(=O)(=O)c1ccc(Nc2nn([C@H]3CCCC[C@H]3C#N)cc2C(N)=O)cc1 (single isomer, unassigned) [Example 42-3]")
7.07
>>> measured_number("N#C[C@H]1CCCC[C@@H]1n1cc(C(N)=O)c(Nc2cc(Cl)cc(Cl)c2)n1 (single isomer, unassigned) [Example 17-54]")
6.92
>>> measured_number("N#C[C@@H]1CCCC[C@@H]1n1cc(C(N)=O)c(Nc2ccc(CC(=O)O)cc2)n1 (mixture of isomers) [Example 3-1]")
6.96
>>> measured_number("N#C[C@H]1CCC[C@@H]1n1cc(C(N)=O)c(Nc2ccccc2)n1 (mixture of isomers) [Example 1-2]")
7.00

----------
# tested.on: JAK1 (recombinant purified GST-tagged catalytic domain) (Homo sapiens (Human))
# Sequence (P23458 875-1153): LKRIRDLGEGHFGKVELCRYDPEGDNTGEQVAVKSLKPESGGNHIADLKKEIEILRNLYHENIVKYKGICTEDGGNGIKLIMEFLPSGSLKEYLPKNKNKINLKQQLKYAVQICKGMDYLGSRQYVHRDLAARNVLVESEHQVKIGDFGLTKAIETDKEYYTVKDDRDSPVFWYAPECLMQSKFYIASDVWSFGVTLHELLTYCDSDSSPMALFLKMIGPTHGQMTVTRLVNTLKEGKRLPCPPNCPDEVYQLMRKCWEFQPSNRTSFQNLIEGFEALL
# experiment.notes: biochemical
readout.type: IC50 (nM)

>>> measured_number("CC(C)(O)C1CN(C(=O)[C@@H]2CC[C@@H](n3cc(C(N)=O)c(Nc4ccc(Cl)cc4)n3)[C@H](C#N)C2)C1 (single isomer, unassigned)")
9

[P] N#C[C@H]1CCCC[C@@H]1n1cc(C(N)=O)c(Nc2cc(F)cc(Cl)c2)n1 (single isomer, unassigned)
[Q] CN(C)[C@H]1CC[C@H](n2cc(C(N)=O)c(Nc3ccc(F)cc3)n2)[C@@H](C#N)C1 (single isomer, unassigned) [Example 28-102]
[R] N#C[C@H]1C[C@H](O)CCC1n1cc(C(N)=O)c(Nc2ccnc(F)c2)n1 (single isomer, unassigned) [Example 25-25]
Ask: Please rank these molecules by IC50 in descending order. API: response body holds the labels in the requested order.
Reply: R, P, Q

----------
# tested.on: JAK2 (recombinant purified GST-tagged catalytic domain) (Homo sapiens (Human))
# experiment.notes: biochemical
readout.type: IC50 (µM)

>>> measured_number("N#C[C@H]1C[C@@H](O)CC[C@@H]1n1cc(C(N)=O)c(Nc2ccc([C@@H](O)C(F)(F)F)cc2)n1 (single isomer, unassigned)")
0.003
>>> measured_number("N#C[C@H]1C[C@@H](NC2(C(F)(F)F)CC2)CC[C@@H]1n1cc(C(N)=O)c(Nc2ccc(Cl)cc2)n1 (single isomer, unassigned)")
0.036

[a] N#C[C@H]1CC(NC2CCS(=O)(=O)C2)CC[C@@H]1n1cc(C(N)=O)c(Nc2ccc(S(=O)(=O)C(F)(F)F)cc2)n1 (single isomer, unassigned)
[b] N#C[C@H]1CCCC[C@@H]1n1cc(C(N)=O)c(Nc2ccccc2)n1 (racemic)
[c] N#C[C@H]1CCCC[C@@H]1n1cc(C(N)=O)c(Nc2ccc(Cl)cc2)n1 (single isomer, unassigned) [Example 17-107]
[d] N#C[C@@H]1C[C@H](C(=O)NC2CCC2)CC[C@H]1n1cc(C(N)=O)c(Nc2ccc(Cl)cc2)n1 (single isomer, unassigned)
[e] C[C@H](N[C@@H]1CC[C@H](n2cc(C(N)=O)c(Nc3ccc(C(F)(F)F)nc3)n2)[C@@H](C#N)C1)C1CC1 (single isomer, unassigned)
Ask: Let's sort these by IC50, smallest first. Go ahead? Lab note: final answer is the ordered label list.
Reply: a, c, b, d, e
(a: 0.007 µM, c: 0.011 µM, b: 0.036 µM, d: 0.078 µM, e: 0.675 µM)

----------
# tested.on: JAK1 (recombinant purified GST-tagged catalytic domain) (Homo sapiens (Human))
# experiment.notes: biochemical
readout.type: IC50 (nM)

Example entries begin here.
>>> measured_number("CNC(=O)O[C@H]1CCC(n2cc(C(N)=O)c(Nc3ccc(F)cc3)n2)[C@@H](C#N)C1 (mixture of isomers) [Example 34-9]")
3
>>> measured_number("Cn1cc(-c2ccc(Nc3nn(C4CCCC[C@@H]4C#N)cc3C(N)=O)cn2)cn1 (mixture of isomers) [Example 21-2]")
2

[I] N#C[C@H]1CCCC[C@@H]1n1cc(C(N)=O)c(Nc2ccnnc2)n1 (single isomer, unassigned) [Example 17-53]
[II] N#C[C@H]1CCCC[C@@H]1n1cc(C(N)=O)c(Nc2ccc(C(F)F)nc2)n1 (single isomer, unassigned) [Example 17-59]
Ask: Higher IC50 between I and II ? Response format: the label of the selected entry.
Reply: I
(I: 3 nM, II: 2 nM)

----------
# tested.on: JAK2 (recombinant purified GST-tagged catalytic domain) (Homo sapiens (Human), UniProt O60674)
# experiment.notes: biochemical
readout.type: IC50 (nM)

Solved entries:
>>> measured_number("CC1(N[C@H]2CCC(n3cc(C(N)=O)c(Nc4ccc(Cl)cc4)n3)[C@@H](C#N)C2)CCOCC1 (single isomer, unassigned) [Example 28-235]")
25
>>> measured_number("CC1(O)CN(C(=O)[C@H]2CC[C@H](n3cc(C(N)=O)c(Nc4ccc(Cl)cc4)n3)[C@@H](C#N)C2)C1 (single isomer, unassigned) [Example 35-30]")
180
>>> measured_number("N#C[C@H]1CCCC[C@@H]1n1cc(C(N)=O)c(Nc2cnc3cc(F)ccc3c2)n1 (single isomer, unassigned) [Example 17-41]")
16

[1] CC1(C)CN([C@H]2CC[C@H](n3cc(C(N)=O)c(Nc4ccc([C@H](O)C(F)(F)F)cc4)n3)[C@@H](C#N)C2)C1 (single isomer, unassigned) [Example 28-93]
[2] N#C[C@H]1CCCC[C@@H]1n1cc(C(N)=O)c(Nc2ccc(Cl)cc2)n1 (single isomer, unassigned) [Example 17-108]
Ask: Compare reported IC50 values for 1 and 2 . Which is lower? In your reply, give the label of the chosen option.
Reply: 1
(1: 5 nM, 2: 120 nM)

Cited source: patent US8962608B2
